From: the supplement of paper PMC10724198

Tested on: Saccharomyces cerevisiae;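 further: PSI is a weighted mean of sequencing reads over stability bins, variants kept only with over 10 reads, mCherry proximal and sfGFP distal, peptide attached via GGGS linker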
Test: protein stability index of tFT-peptide fusion (C-terminal peptide) (PSI (0-1 scale)); higher = more stable (slower turnover)
Conditions: genetic background: das1 deletion; temperature: 37 C
Kindly note that classification relies on protein stability index with these boundaries: L (below 0.5), M (0.5 to below 0.6), H (0.6 or more)

Which bin, given its protein stability index, does `IILRPQYVHYFL` occupy?
M

Which bin, given its protein stability index, does `VLCFTSAYHRLV` occupy?
H

Which bin, given its protein stability index, does `FQFTLWRTLLCS` occupy?
L

Which bin, given its protein stability index, does `PHSMRTTTIMCS` occupy?
M

Which bin, given its protein stability index, does `PFFFIFVLPFVF` occupy?
M

Which bin, given its protein stability index, does `GFPFLCSFLLAS` occupy?
L

Which bin, given its protein stability index, does `GLCGVCLVRCVG` occupy?
L

Which bin, given its protein stability index, does `CFVICVCLCFGR` occupy?
L

Which bin, given its protein stability index, does `VGDVVWFGVGAG` occupy?
H

Which bin, given its protein stability index, does `GALWPGALRFLN` occupy?
H
